Data origin: the supplement of paper PMC7661543

system: HCC-38; assay: relative cell number vs DMSO control (72 h) (% of DMSO); higher = less growth inhibition (more cells); details: sgRNA knockout: sgNT, 10000 nM
Use 90 as the dividing line for relative cell number, with the line itself on the Condition met side and lower values as Condition not met.

Could you verify whether the entry CC(C)C[C@H](NC(=O)CNC(=O)c1cc(Cl)ccc1Cl)B(O)O [MLN2238] shows relative cell number of no less than 90?
Condition not met

Could you verify whether the entry CCOC(=O)[C@@]1(CCCCCCOc2ccc(Cl)cc2)CO1 [Etomoxir] shows relative cell number of no less than 90?
Condition not met

* * *

system: HCC-38; assay: relative cell number vs DMSO control (72 h) (% of DMSO); higher = less growth inhibition (more cells); conditions: sgRNA knockout: sgNT, 10000 nM
parameter: relative cell number
Lab note: record the figure alone, no unit after it.

Field: example entries. Status: answers known.
COc1cc([C@@H]2c3cc4c(cc3[C@@H](O[C@@H]3O[C@@H]5CO[C@@H](C)O[C@H]5[C@H](O)[C@H]3O)[C@H]3COC(=O)[C@H]23)OCO4)cc(OC)c1O [Etoposide]; 20.5
Cc1sc2c(c1C)C(c1ccc(Cl)cc1)=N[C@@H](CC(=O)OC(C)(C)C)c1nnc(C)n1-2 [(+)-JQ1]; 65.3
COC(=O)Nc1nc2cc(C(=O)c3ccccc3)ccc2[nH]1 [Mebendazole]; 19.9
C=CCc1cccc(/C=N/NC(=O)CN2CCN(Cc3ccccc3)CC2)c1O [PAC1]; 33.9
Clc1ccc(C2(c3ccc(-c4cn[nH]c4)cc3)CCNCC2)cc1 [AT7867]; 50.5

Please provide the recorded relative cell number for Cn1cnc2c(F)c(Nc3ccc(Br)cc3Cl)c(C(=O)NOCCO)cc21 [Selumetinib] , tested on HCC-38.
92.3

Please provide the recorded relative cell number for COc1cc2c(cc1-c1c(C)noc1C)ncc1[nH]c(=O)n([C@H](C)c3ccccn3)c12 [IBET151] , tested on HCC-38.
53.6

Please provide the recorded relative cell number for CC(C)(C)c1cnc(CSc2cnc(NC(=O)C3CCNCC3)s2)o1 [SNS032] , tested on HCC-38.
27.8

Please provide the recorded relative cell number for Cc1cc(C2CCCCC2)n(O)c(=O)c1 [Ciclopirox] , tested on HCC-38.
13.6

Please provide the recorded relative cell number for COc1nc(N)nc2c1ncn2[C@@H]1O[C@H](CO)[C@@H](O)[C@@H]1O [Nelarabine] , tested on HCC-38.
109
